Tested on: YST-1
Test: drug sensitivity score (DSS, CellTiter-Glo viability, 72 h) (DSS (dimensionless)); higher = more sensitive; extreme values may be limits of the assay
recordedEndpoint: drug sensitivity score

1) FC(F)(F)c1ccc(/C=C/c2nc(COc3ccc(CCCCn4ccnn4)cc3)co2)cc1 [Mubritinib] (max concentration tested 1000 nM) : 6.65
2) C[C@@H](Oc1ccc2[nH]nc(/C=C/c3cnn(CCO)c3)c2c1)c1c(Cl)cncc1Cl (max concentration tested 1000 nM) : 6.1
3) CCc1c2c(nc3ccc(OC(=O)N4CCC(N5CCCCC5)CC4)cc13)-c1cc3c(c(=O)n1C2)COC(=O)[C@]3(O)CC [Irinotecan] (max concentration tested 10000 nM) : 12
4) COc1cccc2c1C(=O)c1c(O)c3c(c(O)c1C2=O)C[C@@](O)(C(C)=O)C[C@@H]3O[C@H]1C[C@H](N)[C@H](O)[C@H](C)O1 [Daunorubicin] (max concentration tested 1000 nM) : 17.9
5) CO[C@@]12[C@H](COC(N)=O)C3=C(C(=O)C(C)=C(N)C3=O)N1C[C@@H]1N[C@@H]12 [Mitomycin C] (max concentration tested 10000 nM) : 4.11
6) COc1cccc2c1c(O)c(C(=O)N(C)c1ccc(C(F)(F)F)cc1)c(=O)n2C [Tasquinimod] (max concentration tested 10000 nM) : 3.88

----------
Reported drug sensitivity score values follow for various compounds
System: YST-1
Assay: drug sensitivity score (DSS, CellTiter-Glo viability, 72 h) (DSS (dimensionless)); higher = more sensitive; extreme values may be limits of the assay
recordedEndpoint: drug sensitivity score

1. Cc1nc(C(=O)NCC(=O)O)c(O)c2ccc(Oc3ccccc3)cc12 [FG-4592] (max concentration tested 10000 nM) : 0
2. CC[C@H](NC(=O)[C@H](C)NC)C(=O)N1C[C@@H](O)C[C@H]1Cc1c(-c2[nH]c3cc(F)ccc3c2C[C@@H]2C[C@H](O)CN2C(=O)[C@H](CC)NC(=O)[C@H](C)NC)[nH]c2cc(F)ccc12 [Birinapant] (max concentration tested 1000 nM) : 0
3. O=C(NC[C@H](O)CN1CCc2ccccc2C1)c1cc(NC2COC2)ncn1 (max concentration tested 10000 nM) : 0.06
4. CNC(=O)c1nn(C)c2c1C(C)(C)Cc1cnc(Nc3ccc(N4CCN(C)CC4)cc3)nc1-2 [Milciclib] (max concentration tested 10000 nM) : 16.6
5. COc1ncc(-c2ccc3nccc(-c4ccnnc4)c3c2)cc1NS(=O)(=O)c1ccc(F)cc1F [Omipalisib] (max concentration tested 1000 nM) : 23.6

----------
Reported % inhibition values follow for various compounds
System: HS-Sch-2
Assay: % inhibition of CellTiter-Glo viability at highest tested concentration (72 h), relative to DMSO and benzethonium chloride controls; higher = more inhibition
recordedEndpoint: % inhibition

1. CCCCc1nc2cc(/C=C/C(=O)NO)ccc2n1CCN(CC)CC [Pracinostat] (max concentration tested 10000 nM) : 101%
2. CN(C)C/C=C/C(=O)Nc1cc2c(Nc3ccc(F)c(Cl)c3)ncnc2cc1O[C@H]1CCOC1 [Afatinib] (max concentration tested 1000 nM) : 21.2%
3. CCCCNc1ncc(C(=O)NCc2ccc(-n3ccnc3)cc2)c(NC2CCC(O)CC2)n1 (configuration not stated) [UNC2881] (max concentration tested 2500 nM) : 9.68%
4. Cc1ccc(NC(=O)c2ccc(CN3CC[C@H](N(C)C)C3)c(C(F)(F)F)c2)cc1Nc1nccc(-c2cncnc2)n1 [Bafetinib] (max concentration tested 1000 nM) : 16.8%
5. CCCCCCCCCCCCCCCCCCOP(=O)([O-])OC1CC[N+](C)(C)CC1 [Perifosine] (max concentration tested 2500 nM) : 4.74%
6. Cc1sc2c(c1C)C(c1ccc(Cl)cc1)=N[C@@H](CC(=O)OC(C)(C)C)c1nnc(C)n1-2 [JQ1] (max concentration tested 10000 nM) : 76.3%
7. CNC(=O)c1cc(Oc2ccc(NC(=O)Nc3ccc(Cl)c(C(F)(F)F)c3)c(F)c2)ccn1 [Regorafenib] (max concentration tested 10000 nM) : 84.1%
8. CCc1nc(-c2cccc(C)c2)c(-c2ccnc(NC(=O)c3ccccc3)c2)s1 [TAK-715] (max concentration tested 10000 nM) : 27.9%
9. O=C(CCCCCCC(=O)Nc1ccc([C@H]2O[C@@H](CSc3nc(-c4ccccc4)c(-c4ccccc4)o3)C[C@@H](c3ccc(CO)cc3)O2)cc1)NO [Tubacin] (max concentration tested 10000 nM) : 63.7%
10. CC(C)C(=O)Nc1ccc([N+](=O)[O-])c(C(F)(F)F)c1 [Flutamide] (max concentration tested 10000 nM) : -3.98%
11. CCOc1cc2ncc(C#N)c(Nc3ccc(F)c(Cl)c3)c2cc1NC(=O)/C=C/CN(C)C [Pelitinib] (max concentration tested 2500 nM) : 89.6%
12. O[C@H]1CC[C@H](Nc2ncc3nc(Nc4c(F)cc(F)cc4F)n([C@H]4CCOC4)c3n2)CC1 [Tanzisertib] (max concentration tested 10000 nM) : -2.81%

----------
System: HS-Sch-2
Experiment: % inhibition of CellTiter-Glo viability at highest tested concentration (72 h), relative to DMSO and benzethonium chloride controls; higher = more inhibition
Group membership follows % inhibition per the scheme bottom range: < 10%; center range: ≥ 10% and < 90%; top range: ≥ 90%

1) CCOc1cc2ncc(C#N)c(Nc3ccc(OCc4ccccn4)c(Cl)c3)c2cc1NC(=O)/C=C/CN(C)C [Neratinib] (max concentration tested 1000 nM) : center range
2) CCn1cc(-c2ccnc3[nH]c(-c4cccc(CN(C)C)c4)cc23)c(-c2ccc(NC(=O)N(C)C)cc2)n1 (max concentration tested 1000 nM) : center range
3) O=C(Nc1cccnc1)N1CCC(Cc2cccc(Oc3ccc(C(F)(F)F)cn3)c2)CC1 [PF-3845] (max concentration tested 10000 nM) : center range
4) CC(C)C[C@H](NC(=O)[C@H](CCc1ccccc1)NC(=O)CN1CCOCC1)C(=O)N[C@@H](Cc1ccccc1)C(=O)N[C@@H](CC(C)C)C(=O)[C@@]1(C)CO1 [Carfilzomib] (max concentration tested 1000 nM) : top range
5) Cc1nn(C)c(COc2ccc(N3CCN(S(=O)(=O)N(C)C)CC3)cc2)c1-c1cccc2c(CCCOc3cccc4ccccc34)c(C(=O)O)n(CCN3CCOCC3)c12 (max concentration tested 50000 nM) : top range
6) Clc1ccc(C(c2ccccc2Cl)C(Cl)Cl)cc1 (configuration not stated) [Mitotane] (max concentration tested 10000 nM) : bottom range
7) COc1cc2c(Oc3ccc4[nH]c(C)cc4c3F)ncnc2cc1OCCCN1CCCC1 [Cediranib] (max concentration tested 1000 nM) : bottom range
8) C[C@@H]1CN(CC(=O)Nc2ccc3c(c2)Cc2cccc(-c4cc(=O)cc(N5CCOCC5)o4)c2S3)C[C@H](C)O1 (max concentration tested 25000 nM) : top range
9) C[C@]12CC[C@@H]3c4ccc(O)cc4C[C@@H](CCCCCCCCC[S+]([O-])CCCC(F)(F)C(F)(F)F)[C@H]3[C@@H]1CC[C@@H]2O (some centres not stated) [Fulvestrant] (max concentration tested 1000 nM) : bottom range
10) CC(C)C[C@@H](C(=O)N[C@H](C(=O)OC1CCCC1)c1ccccc1)[C@H](O)C(=O)NO [Tosedostat] (max concentration tested 10000 nM) : center range
11) CC(C)NC[C@@H](C(=O)N1CCN(c2ncnc3c2[C@H](C)C[C@H]3O)CC1)c1ccc(Cl)cc1 [Ipatasertib] (max concentration tested 10000 nM) : center range
12) COc1cccc2c1C(=O)c1c(O)c3c(c(O)c1C2=O)C[C@@](O)(C(=O)CO)C[C@@H]3O[C@H]1C[C@H](N)[C@H](O)[C@H](C)O1 [Doxorubicin] (max concentration tested 1000 nM) : top range
13) CCc1c2c(nc3ccc(O)cc13)-c1cc3c(c(=O)n1C2)COC(=O)[C@]3(O)CC [SN-38] (max concentration tested 10000 nM) : top range
14) C[C@H](Nc1ncnc2nc[nH]c12)c1cc2cccc(Cl)c2c(=O)n1-c1ccccc1 [Duvelisib] (max concentration tested 500 nM) : center range
15) C[C@@H]1CN(Cc2ccc(F)cc2)[C@@H](C)CN1C(=O)c1cc2c(C(=O)C(=O)N(C)C)cn(C)c2cc1Cl [Talmapimod] (max concentration tested 10000 nM) : bottom range
16) C[C@H]1C=C2C(=O)O[C@H]3CC[C@@H](C1)[C@@]23O [Galiellalactone] (max concentration tested 25000 nM) : top range
17) O=C(O)C(=O)O.[NH-][C@@H]1CCCC[C@H]1[NH-].[Pt+2] [Oxaliplatin] (max concentration tested 100000 nM) : top range
18) Nc1ccccc1NC(=O)c1ccc(CNc2nccc(-c3cccnc3)n2)cc1 [Mocetinostat] (max concentration tested 10000 nM) : top range
19) Cc1cc(Nc2nc(N[C@@H](C)c3ncc(F)cn3)ncc2Cl)[nH]n1 [AZD1480] (max concentration tested 1000 nM) : bottom range
20) CNC(=O)c1ccc2cc([C@@]3(O)CCn4cncc43)ccc2c1 [Orteronel] (max concentration tested 10000 nM) : bottom range
